B1: tRNA (parent)
chain: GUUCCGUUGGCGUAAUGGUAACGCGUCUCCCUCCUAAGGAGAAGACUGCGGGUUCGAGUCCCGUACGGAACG

Variants of: B1
Assay: yeast fitness relative to wild type (ratio to wild type); higher = fitter; tRNA-Arg(CCU), competitive growth, 37 C, YPD
Fewer inactive variants are shown than the library holds.
Exercise: state measured yeast fitness for each of the variants provided.

Supply yeast fitness value. Item: GUUCCGUUGGCGUAAUGGUAACGUGUAUCUCUCCUAAGGAGAAGAGUGCGGGUUCGAGUCCCGUACGGAACG [C24U C27A C30U C46G]
≤ 0.5

Supply yeast fitness value. Item: GUUCCGUUGGCGUAAUGGUAACGGGUCUCCCUCCUAAGCAGAAGACUGCGGGUUCGGGUCCCGUGCGGAACG [C24G G39C A57G A65G]
≤ 0.5

Supply yeast fitness value. Item: GUUCCGUGGGCGUAAUGGUAACGCGUCUCCCUCCUACGGAGAAGACUGCGGGUUCGAGUCCCGUACGAAACG [U8G A37C G68A]
≤ 0.5

Supply yeast fitness value. Item: GUUCCGUUGACGUAAUGGUAACGGGUCUCCCUCCUAAGGAGAGGACUGCGGGUUCGAGUCCCGUACGGAACG [G10A C24G A43G]
≤ 0.5

Supply yeast fitness value. Item: GUUCCGUUGGCGUAAUGGUAACGCGUCUCCCUCCUAAGGGGAAGACUGCGGGUUCGACUCGCGUCCGGAACG [A40G G58C C61G A65C]
≤ 0.5

Supply yeast fitness value. Item: GUUUAGUUGGCGUAAUGGUAACGCGUCUCCCUCCUAAGGAGAAGACUGCGGGUUCGAGCGCCGUACGGAACG [C4U C5A U59C C60G]
≤ 0.5

Supply yeast fitness value. Item: GUUCCGUUGGCGUAAUGGUAACGCGUCUCCCUCCUAAGCGGAAGACUCCGGGUUCGAGUCCCGUACGGAACG [G39C A40G G48C]
≤ 0.5

Supply yeast fitness value. Item: GUUCCGAUGGCGUAAUGGCAACGCGUCUCCCUCCUAAGGAGAGGACUGCGGGUUCGAGUGCCGUACGGAACG [U7A U19C A43G C60G]
≤ 0.5

Supply yeast fitness value. Item: GUUCCAUUGGCGUGAUGGUAACGCGUCUCCUUCCUGAGGAGAAGACUGCGGGUUCGAGUCCCGUACGGAACG [G6A A14G C31U A36G]
≤ 0.5

Supply yeast fitness value. Item: GUUCCGUUGGCGUAAUGGUAAUGCGUCUCCCUCCCACGGAGAAGACUGCGGGUUCGAGUCCCGUACGGAACG [C22U U35C A37C]
≤ 0.5

Supply yeast fitness value. Item: GUUCCGUUGGCGUAAUGGUAACGCGUCUCCCUCCUAAGGAGAAGACUGGGGGUUCGAAUCCCGUAGGGAACG [C49G G58A C66G]
0.564

Supply yeast fitness value. Item: GUUCUGUUGGCGUAAUGGUAACGCGUCUCCCUCCUAAGGAGAUAAAUGCGGGUUCGAGUCCCGUACGGAACG [C5U A43U G44A C46A]
≤ 0.5

Supply yeast fitness value. Item: GUUCUGUUGGCGCAAUGGUAACGGGCCUCCCUCCUAGUGAGAAGACUGCGGGUGCGAGUCGCGUACGGAACG [C5U U13C C24G U26C A37G G38U U54G C61G]
≤ 0.5

Supply yeast fitness value. Item: GUUCCGUUGGCGUAAUGGUAACGUGUCUCCCUCCUAAGGAGAAGACCGCGGGUUGGAGUCCCGUACGGAUCG [C24U U47C C55G A70U]
0.642

Supply yeast fitness value. Item: GUUCCGUUGACGUAAUGGUAACGCGUCUCCCUCCUAAGGAGAAGACUGCGGGUUCGAGUGCCGUACAGAACG [G10A C60G G67A]
≤ 0.5

Supply yeast fitness value. Item: GUUCCGUUGGCGUAAUCGUAACGCGUCUCCCUCCUAAGGAGCAGACUGCGGGUUUGAGUCCCGUACGGAACG [G17C A42C C55U]
≤ 0.5

Supply yeast fitness value. Item: GUUCCGUUGGCGUAAUGGUCACGCGUUUCCCUCGUAAGGAGACGACUGCGGGUUCGAGUCUGGUACGGAACG [A20C C27U C34G A43C C61U C62G]
≤ 0.5

Supply yeast fitness value. Item: GUUCCGUUGGCGUAAUGGUAACGCGUCUCCCUCCUACGGAGAAGACUGCGGGUUAGAGUGCCCUACGGAACG [A37C C55A C60G G63C]
≤ 0.5

Supply yeast fitness value. Item: GUUCCGUUGGCGUAAUGGUAACGCGUCUCCCUCUUAAGGAGAAGACUGCGGGUUCGAGUCCCGUACAGAACG [C34U G67A]
0.744

Supply yeast fitness value. Item: GCUCCGUUGGCGUAAUGGUAACGCGUCUCCCUCCUAAGGAGAAGACCGCGGGUUCGAGUCCCGUACCGAACG [U2C U47C G67C]
0.719

Supply yeast fitness value. Item: GUUAUGUUGGCGUAAUGGAAACGCGUCUCCCUCCUAAGGAGGAGACUGCGGGUUCGAGUCCCGUACGGAACG [C4A C5U U19A A42G]
≤ 0.5

Supply yeast fitness value. Item: GUUCCGUUGGCGUAAUGGUAUCGCGUCUCCCUCCUAAGGAGAAGACUGCGGGUUCGAGUUCCGUACUGAACG [A21U C60U G67U]
≤ 0.5

Supply yeast fitness value. Item: GUUCAGUUGGCGUAUUGGUAACGCAUCUCCCUCCUAAGGAGAAGACUGCGGGUUCGAGCCCCGUACGGAACG [C5A A15U G25A U59C]
≤ 0.5

Supply yeast fitness value. Item: GUUUCGUUGGCGUAAUGGUAACGCGUCUCCCUCCUAAGGGGAAGACUGCGGGGUCGCGUGCCGUUCGGAACG [C4U A40G U53G A57C C60G A65U]
0.583

Supply yeast fitness value. Item: GUUCCGUUGGCAUAAUGGUAGCGCGUCUCCCUCCUAAGGAGAAAAUUGCGGGUUCGAGUCCCGUACGGCACG [G12A A21G G44A C46U A69C]
0.507

Supply yeast fitness value. Item: GUUUCGUUGGCGUAAUGGUAACGCGUCUUCCUCCUAAGGAGAAGACUGCGGGUUCGAGUCCCAUACGGAACG [C4U C29U G63A]
0.517

Supply yeast fitness value. Item: GUUUCGUUGGCGUAAUGGUAACGCGUCUCCCUCCUAAGGAGAAGACUGCAGGUUCGAGUCCCGUACGGAACG [C4U G50A]
0.965

Supply yeast fitness value. Item: GUUCCCGUGGCGUAAUCGUAACGCGUCUCCCUCCUAAGGAGAAGACUGCGGGUUCGAGUCCCGUACAGAACG [G6C U7G G17C G67A]
≤ 0.5

Supply yeast fitness value. Item: GUUCCGUUGGCGUAAUGGUAACGCGUCUUCCUCCUAAGGAGAAGACUGCGGGUUCGAGUCCCGUACAGAACG [C29U G67A]
0.771

Supply yeast fitness value. Item: GUUCCGUUGGCGUAAUGGUAACGCGUCUCCCUCCUCAGGAGUAGACUGCGGGUUCGAGUCCCGUUCGGAACG [A36C A42U A65U]
0.647

Supply yeast fitness value. Item: GUUCCGUUGGAGUAAUGGUAACGCGUCUCCCUCCUAAGGAGAAGACUGAGGGUUCGAGUCCCGUACGGAACG [C11A C49A]
≤ 0.5

Supply yeast fitness value. Item: GUUUCGUUGGCGUAAUGGUAACGCGUCUACGUCCUAAGGAGCAGUCUGCGGGUUCGAGUCCCGUACGGUACG [C4U C29A C31G A42C A45U A69U]
≤ 0.5

Supply yeast fitness value. Item: GUUCCGAUGCCGUAAUGGUAACGCGUCUCGCUCCUAAGGAGAAGAUUGCGGGUUCGAGUCCCGUACGGAACG [U7A G10C C30G C46U]
≤ 0.5

Supply yeast fitness value. Item: GUUCCGUUGGCGUGAUGGUAACGCGUCUGCCUCCUUAGGAGAAGAGUGCGGGUUCGAGUCCCGUACGGAACG [A14G C29G A36U C46G]
≤ 0.5

Supply yeast fitness value. Item: GUUCCGUUGGUGUAAUGGAAACGCGUCUCCCUCCUACGGCGAAGACUGCGGGUUCGAGUCCCAUACGGAACG [C11U U19A A37C A40C G63A]
≤ 0.5

Supply yeast fitness value. Item: GUUCCGUUGGCGUAAUGGUAACGAGUCUCCCUACUAUGGAGAAGACUGCCGGUUCGAGUCUCGUACGGAACG [C24A C33A A37U G50C C61U]
≤ 0.5

Supply yeast fitness value. Item: GUUCCGUUGACGAAAUGGUAACGCGUCUCUCUCCUAAGGAGAAGACUGCGGGUUGGACUCCCGUACGGAACG [G10A U13A C30U C55G G58C]
≤ 0.5

Supply yeast fitness value. Item: GUUCCGUCGGCGUAAUGGUAAUGCGUCUCCCUCCUAAGGAGAAGACUGCGGGUUCGAGUCCCGUACGGCACG [U8C C22U A69C]
0.505

Supply yeast fitness value. Item: GUUCCGUUGGCGUAGUGGUAACGCGUCUCCCUCCUAAGGAGAAGACUGCGGGUCCGAGUCCCGUAAGGAACG [A15G U54C C66A]
≤ 0.5
